Reported values of IC50 for individual entries
- system.under.test: CYP11A1 (Homo sapiens)
- Construct: endogenous in cells; host or cells: NCI-H295R
- assay.summary: CYP11A1 inhibition: pregnenolone biosynthesis measured by ELISA in NCI-H295R cells
- Format: cell-based
- applied.conditions: NCI-H295R cells treated for 24 hours, 10 concentrations in duplicates, read-out: IC50 on CYP11A1 inhibition (Group)

Worked examples follow.
- compound: "COc1ccc2c(c1)CCCN2C(=O)c1cncc(-c2ccccc2)c1 [Compound 53]"
  result: "51 to 200 nM"
- compound: "Cn1cc(-c2cncc(C(=O)N3CCOc4ccccc43)n2)cn1 [Compound 43]"
  result: "51 to 200 nM"
- compound: "COc1ccc2c(c1)N(C(=O)c1cncc(-c3ccccc3)c1)CCC2 [Compound 69]"
  result: "201 to 2500 nM"
- compound: "O=C(c1cncc(-c2ccc(F)cc2)c1)N1CCOc2cc(F)ccc21 [Compound 2]"
  result: "< 50 nM"
- compound: "COC(=O)c1ccc2c(c1)CCCN2C(=O)c1cncc(-c2ccccc2)c1 [Compound 67]"
  result: "201 to 2500 nM"

Query: What value of measured IC50 is listed for Fc1ccc(-c2cncc(CN3CCc4ccccc43)c2)cc1 [Compound 90] ?
Result: 51 to 200 nM

Query: GET /values?readout=IC50&item= CN1CCN(C(=O)c2cncc(-c3ccc(F)cc3)c2)c2ccccc21 [Compound 31]
Result: < 50 nM

Query: Looking for the measured IC50 of O=C(c1cc(-c2ccc(F)cc2)cnn1)N1CCOc2ccccc21 [Compound 7] , can you help?
Result: 201 to 2500 nM

Query: Given the entry COc1cc(F)ccc1-c1cncc(C(=O)N2CCOc3ccccc32)c1 [Compound 45] , report its measured IC50.
Result: 51 to 200 nM

====

- system.under.test: CYP11A1 (Homo sapiens, UniProt P05108)
- Construct: endogenous in cells
- assay.summary: CYP11A1 inhibition: pregnenolone biosynthesis measured by ELISA in NCI-H295R cells
- applied.conditions: NCI-H295R cells treated for 24 hours, 10 concentrations in duplicates, read-out: IC50 on CYP11A1 inhibition (Group)
assay.readout: IC50

Study these solved cases before continuing.
- compound: "Cc1cn(-c2cncc(C(=O)N3CCCc4ccccc43)n2)cn1"
  IC50: "< 50 nM"
- compound: "O=C(c1cncc(-c2ccc(F)cc2)n1)N1CCOc2ccccc21"
  IC50: "< 50 nM"
- compound: "O=C(c1cncc(-c2ccc(F)nc2)c1)N1CCOc2ccccc21"
  IC50: "51 to 200 nM"
- compound: "O=C(c1cncc(-c2ccc(CO)cc2)c1)N1CCCc2ccccc21"
  IC50: "51 to 200 nM"
- compound: "O=C(c1cncc(-c2ccccc2)n1)N1CCCc2ncccc21"
  IC50: "< 50 nM"

Query: IC50; subject: Cc1ccc(-c2cncc(C(=O)N3CCOc4ccccc43)c2)cc1
Result: 201 to 2500 nM

Query: Field request: IC50 | item: O=C(c1cncc(-c2ccc(F)c(O)c2)c1)N1CCOc2ccccc21
Result: < 50 nM

Query: For the compound CC1(C)C2CN(c3cncc(C(=O)N4CCOc5ccccc54)c3)CC21 (stereo not drawn) , what IC50 is on record?
Result: 201 to 2500 nM

Query: What IC50 value was documented for this compound, O=C(c1cncc(-c2ccc3c(c2)OCC3)n1)N1CCOC2CCCCC21 (stereo not drawn) ?
Result: < 50 nM

====

- system.under.test: CYP11A1 (Homo sapiens)
- Construct: endogenous in cells
- assay.summary: CYP11A1 inhibition: pregnenolone biosynthesis measured by ELISA in NCI-H295R cells
- applied.conditions: NCI-H295R cells treated for 24 hours, 10 concentrations in duplicates, read-out: IC50 on CYP11A1 inhibition (Group)
List of IC50 values.

Examples with answers:
- compound: "O=C(c1cncc(-c2ccc(F)cc2F)c1)N1CCOc2ccccc21 [Compound 28]"
  system.under.test: "CYP11A1 (Homo sapiens)"
  result: "< 0.05 µM"
- compound: "O=C(c1cncc(-c2ccc(F)cc2)c1)N1CCCc2ccccc21 [Compound 16]"
  system.under.test: "CYP11A1 (Homo sapiens)"
  result: "< 0.05 µM"
- compound: "O=C(c1cncc(N2CC(F)(F)C2)n1)N1CCOc2ccccc21 [Compound 77]"
  system.under.test: "CYP11A1 (Homo sapiens)"
  result: "0.201 to 2.5 µM"

Query: For Cn1cc(-c2cncc(C(=O)N3CCOc4ccccc43)c2)cn1 [Compound 73] , what is its reported IC50?
Result: 0.201 to 2.5 µM

Query: Record request: IC50 value, item CC1CCc2ccccc2N1C(=O)c1cnnc(-c2ccc(F)cc2)c1 (stereo not drawn) [Compound 64]
Result: 0.201 to 2.5 µM

Query: Which value of IC50 has been reported for O=C(c1cncc(-c2ccc(F)cc2)c1)N1CCOc2ccccc21 [Compound 24] in the records?
Result: < 0.05 µM

Query: What does the record list as IC50 for CN1CCN(c2cncc(C(=O)N3CCOc4ccccc43)n2)CC1 [Compound 78] ?
Result: 0.201 to 2.5 µM

Query: // returns reported IC50 for input CN1CCN(C(=O)c2cncc(-c3ccc(F)cc3)n2)c2ccccc21 [Compound 21]
Result: < 0.05 µM

Query: Requested read-out: IC50. Entry: COc1cccc(-c2cncc(C(=O)N3CCCc4ccccc43)n2)c1 [Compound 25]
Result: < 0.05 µM

====

- system.under.test: CYP11A1 (Homo sapiens, UniProt P05108)
- Construct: endogenous in cells
- assay.summary: CYP11A1 inhibition: pregnenolone biosynthesis measured by ELISA in NCI-H295R cells
- applied.conditions: NCI-H295R cells treated for 24 hours, 10 concentrations in duplicates, read-out: IC50 on CYP11A1 inhibition (Group)
pIC50: −log10 of the molar value.
Listing of recorded pIC50 by entry.

// worked examples, pIC50 included
- given.smiles: "O=S(=O)(c1cncc(-c2ccc(F)cc2)c1)N1CCOc2ccccc21"
  pIC50: "6.70 to 7.29"
- given.smiles: "O=C(c1cncc(-c2ccc([N+](=O)[O-])cc2)c1)N1CCOc2ccccc21"
  pIC50: "> 7.30"
- given.smiles: "Cc1cnn(-c2cncc(C(=O)N3CCCc4ccccc43)c2)c1"
  pIC50: "> 7.30"
- given.smiles: "O=C(c1cncc(Cc2ccccc2)n1)N1CCCc2ccccc21"
  pIC50: "5.60 to 6.70"

Query: May I ask what pIC50 has been recorded for O=C(c1cncc(-c2ccccc2)n1)N1CCCc2ccccc21 ?
Result: > 7.30

====

- system.under.test: CYP11A1 (Homo sapiens, UniProt P05108)
- Construct: endogenous in cells
- assay.summary: CYP11A1 inhibition: pregnenolone biosynthesis measured by ELISA in NCI-H295R cells
- applied.conditions: NCI-H295R cells treated for 24 hours, 10 concentrations in duplicates, read-out: IC50 on CYP11A1 inhibition (Group)
pIC50: −log10 of the molar value.
assay.readout: pIC50

- given.smiles: "c1ccc(-c2cncc(CN3CCOc4ccccc43)c2)cc1"
  system.under.test: "CYP11A1 (Homo sapiens, UniProt P05108)"
  result: "5.60 to 6.70"
- given.smiles: "COc1cccc(-c2cncc(C(=O)N3CCCc4ccccc43)c2)c1"
  system.under.test: "CYP11A1 (Homo sapiens, UniProt P05108)"
  result: "> 7.30"

Query: Consider the molecule shown here: O=C(c1cncc(-c2ccc3c(c2)OCC3)n1)N1CCCc2ccccc21 What is its recorded pIC50?
Result: > 7.30

Query: Would you kindly share the measured pIC50 for O=C(c1cnnc(-c2ccc(F)cc2)c1)N1CCOc2ccccc21 ?
Result: > 7.30

Query: Need pIC50, item O=C(c1cncc(-c2ccc3ncoc3c2)n1)N1CCOc2ccccc21
Result: > 7.30

====

Listed here: items and their measured pIC50.
- system.under.test: CYP11A1 (Homo sapiens, UniProt P05108)
- Construct: endogenous in cells
- Sequence (P05108 40-521): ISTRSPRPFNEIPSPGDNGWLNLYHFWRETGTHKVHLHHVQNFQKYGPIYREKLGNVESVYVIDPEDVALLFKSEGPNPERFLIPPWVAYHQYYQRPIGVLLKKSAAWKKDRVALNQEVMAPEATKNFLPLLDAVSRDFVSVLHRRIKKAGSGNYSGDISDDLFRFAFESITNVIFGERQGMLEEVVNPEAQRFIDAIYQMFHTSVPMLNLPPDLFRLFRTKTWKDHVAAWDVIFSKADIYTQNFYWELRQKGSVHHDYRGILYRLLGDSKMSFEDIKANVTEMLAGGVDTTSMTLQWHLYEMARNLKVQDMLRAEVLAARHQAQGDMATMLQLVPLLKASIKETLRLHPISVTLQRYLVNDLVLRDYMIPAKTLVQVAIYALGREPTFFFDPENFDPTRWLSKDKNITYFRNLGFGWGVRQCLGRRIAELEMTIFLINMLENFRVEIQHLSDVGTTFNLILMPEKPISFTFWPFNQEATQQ
- assay.summary: CYP11A1 inhibition: pregnenolone biosynthesis measured by ELISA in NCI-H295R cells
- applied.conditions: NCI-H295R cells treated for 24 hours, 10 concentrations in duplicates, read-out: IC50 on CYP11A1 inhibition (Group)
pIC50: −log10 of the molar value.

Past entries and their recorded results:
- compound: "O=C(c1cncc(-c2ccc3c(c2)OCC3)c1)N1CCOC2CCCCC21 (stereo not shown)"
  system.under.test: "CYP11A1 (Homo sapiens, UniProt P05108)"
  pIC50: "5.60 to 6.70"
- compound: "O=S(=O)(c1cncc(-c2ccc(F)cc2)c1)N1CCCc2ccccc21"
  system.under.test: "CYP11A1 (Homo sapiens, UniProt P05108)"
  pIC50: "6.70 to 7.29"
- compound: "COc1ccc(-c2cncc(C(=O)N3CCCc4ccccc43)c2)cc1"
  system.under.test: "CYP11A1 (Homo sapiens, UniProt P05108)"
  pIC50: "> 7.30"
- compound: "O=C(c1cncc(-c2cccc(C(F)(F)F)c2)c1)N1CCOc2ccccc21"
  system.under.test: "CYP11A1 (Homo sapiens, UniProt P05108)"
  pIC50: "6.70 to 7.29"
- compound: "O=C(c1cncc(-c2ccc(F)cc2)c1)N1CCO[C@H]2CCCC[C@@H]21"
  system.under.test: "CYP11A1 (Homo sapiens, UniProt P05108)"
  pIC50: "6.70 to 7.29"

Query: pIC50; subject: O=C(c1cncc(-n2cccc2)c1)N1CCCc2ccccc21
Result: > 7.30

Query: What value of pIC50 has been recorded for this entry: O=C(c1cnnc(-c2ccccc2)c1)N1CCCc2ccccc21
Result: 6.70 to 7.29

Query: Name the reported pIC50 value associated with the compound COc1ccc(-c2cncc(C(=O)N3CCOc4ccccc43)c2)cc1
Result: > 7.30

Query: Find the recorded pIC50 belonging to O=C(c1cncc(N2CCCC2)c1)N1CCOc2ccccc21 and report it.
Result: 5.60 to 6.70

Query: Would you mind telling me what pIC50 value was observed for O=C(c1cncc(-c2ccncc2)c1)N1CCCc2ccccc21 ?
Result: 5.60 to 6.70

Query: Need pIC50, item Cc1cn(-c2cncc(C(=O)N3CCCc4ccccc43)c2)cn1
Result: 5.60 to 6.70

Query: Reported pIC50, compound O=C(c1cncc(-c2cccc(OC(F)(F)F)c2)n1)N1CCOc2ccccc21 : ____
Result: 6.70 to 7.29

Query: For the compound shown here, O=C(c1cncc(-c2cccnc2)c1)N1CCCc2ccccc21 , give the reported pIC50.
Result: 5.60 to 6.70

Query: Give its pIC50 value. Item: O=C(c1cncc(-c2ccc3c(c2)OCC3)n1)N1CCOc2ccccc21
Result: > 7.30

Query: # query: pIC50 of entry O=C(c1cncc(-c2ccc(F)cc2)c1)N1CCO[C@@H]2CCCC[C@H]21
Result: 5.60 to 6.70

Query: Can you look up the measured pIC50 of O=C(c1cncc(-c2ccc(F)cc2)c1)N1CCc2ccccc21 for me?
Result: 5.60 to 6.70

Query: Bench note: what pIC50 did O=C(c1cncc(-c2ccccc2)c1)N1CCCc2ncccc21 show?
Result: 5.60 to 6.70

Query: Entry O=C(Cc1cncc(-c2ccc(F)cc2)c1)N1CCOc2ccccc21 has what pIC50?
Result: 5.60 to 6.70

Query: Reported pIC50 for Cn1nccc1-c1cncc(C(=O)N2CCOc3ccccc32)n1 : what is it?
Result: 5.60 to 6.70
